Can you tell me CD28 Fold change to WT CD80 for the items I'm about to list?
target: CD28 (Homo sapiens, UniProt P10747); assay: Flow binding to Jurkat/IL2 reporter cells (CD28); set-up: host or cells: Jurkat cells expressing an IL-2-luciferase reporter; conditions: Table E4; MFI ratio to WT CD80 ECD-Fc (R&D) at 33.3 nM
// return just the number, without any unit appended

Inquiry: // query CD28 Fold change to WT CD80 value for entry Q33L/E35D/M47I/N48D/A71G (protein, UniProt P33681 35-288, looked up, variant Q33L E35D M47I N48D A71G) T-lymphocyte activation …: VIHVTKEVKEVATLSCGHNVSVEELAQTRIYWLKDKKMVLTMMSGDIDIWPEYKNRTIFDITNNLSIVILGLRPSDEGTYECVVLKYEKDAFKREHLAEVTLSVKADFPTPSISDFEIPTSNIRRIICSTSGGFPEPHLSWLENGEELNAINTTVSQDPETELYAVSSKLDFNMTTNHSFMCLIKYGHLRVNQTFNWNTTKQEHFPDNLLPSWAITLISVNGIFVICCLTYCFAPRCRERRRNERLRRESVRPV
Reply text: 0.04

Inquiry: Now consider E35D/L85Q/K93I/E95V/L97Q (protein) VIHVTKEVKEVATLSCGHNVSVEELAQTRIYWQKDKKMVLTMMSGDMNIWPEYKNRTIFDITNNLSIVILALRPSDEGTYECVVQKYEKDAFTRVHQAEVTLSVKAD .
Reply text: 0.02
